Assign log10 EC50 to each entry below.
Target: human mGlu4 receptor (Homo sapiens)
Construct: expressed in transfected cells; host or cells: HEK-293 (monoclonal, stably transfected)
Assay: Ca2+ mobilization in vitro assay on recombinant human mGlu4 expressed in HEK293 cells (mGlu4 PAM)
Format: cell-based
Conditions: HEK-293 cells, Ca2+ mobilization, L-AP4 added at EC20
Protocol: Determination of EC50 Values Using a Ca2+ mobilization in vitro Assay on Recombinant Human mGlu4 Expressed in HEK293 cells: […] Responses were measured as peak increase in fluorescence minus basal (i.e. fluorescence without addition of L-AP4), normalized to the maximal stimulatory effect obtained with saturating concentrations of L-AP4. […]
Field: value | Transform: log10 | Quantity: EC50 | Unit: nM

Below, 5 compounds whose answers are already recorded.
[
  {
    "COMPOUND": "CN1C(=O)N(c2ccc(C#Cc3ccccc3)cc2Cl)C(=O)CC12CCOCC2",
    "MEASURE NAME": "log10 EC50",
    "ASSAY VALUE": 2.59
  },
  {
    "COMPOUND": "COc1ncc([C@]2(C)CC(=O)N(c3c(F)cc(C#Cc4ccccc4)cc3F)C(=O)N2C)cn1",
    "MEASURE NAME": "log10 EC50",
    "ASSAY VALUE": 1.66
  },
  {
    "COMPOUND": "CN1C(=O)N(c2c(F)cc(C#Cc3ccccc3)cc2F)C(=O)C[C@@]1(C)c1cccnc1",
    "MEASURE NAME": "log10 EC50",
    "ASSAY VALUE": 1.57
  },
  {
    "COMPOUND": "CC(C)Oc1ccc([C@]2(C)CC(=O)N(c3c(F)cc(C#Cc4ccccc4)cc3F)C(=O)N2C)cn1",
    "MEASURE NAME": "log10 EC50",
    "ASSAY VALUE": 1.99
  },
  {
    "COMPOUND": "CC12CC(=O)N(c3c(F)cc(C#Cc4ccccc4)cc3F)C(=O)N1CCN(c1ccccc1)C2=O (racemic)",
    "MEASURE NAME": "log10 EC50",
    "ASSAY VALUE": 1.49
  }
]

For the 6 compounds below, give their log10 EC50 values.
1. CN1C(=O)N(c2c(F)cc(C#Cc3ccccc3)cc2F)C(=O)C2CCCC21C (stereo in doubt)
2. CCN1C(=O)N(c2c(F)cc(C#Cc3cccnc3)cc2Cl)C(=O)CC1(C)C
3. CN1C(=O)N(c2c(F)cc(C#Cc3cccnc3)cc2F)C(=O)C[C@@]1(C)c1cccnc1
4. CC(C)N1C(=O)N(c2c(F)cc(C#Cc3ccccc3)cc2F)C(=O)C[C@@]1(C)c1cccnc1
5. CN1C(=O)N(c2c(F)cc(C#Cc3cccnc3)cc2F)C(=O)CC1(C)c1ccccc1 (stereo in doubt) [Example 20]
6. CCC1(CC)CC(=O)N(c2c(F)cc(C#Cc3ccccc3)cc2F)C(=O)N1

Solution:
1. 2.10
2. 2.41
3. 1.90
4. 1.86
5. 2.38
6. 2.16

====

Biological target: human mGlu4 receptor (Homo sapiens, UniProt Q14833)
Construct: expressed in transfected cells; host or cells: HEK-293 (monoclonal, stably transfected)
Sequence (Q14833 33-912): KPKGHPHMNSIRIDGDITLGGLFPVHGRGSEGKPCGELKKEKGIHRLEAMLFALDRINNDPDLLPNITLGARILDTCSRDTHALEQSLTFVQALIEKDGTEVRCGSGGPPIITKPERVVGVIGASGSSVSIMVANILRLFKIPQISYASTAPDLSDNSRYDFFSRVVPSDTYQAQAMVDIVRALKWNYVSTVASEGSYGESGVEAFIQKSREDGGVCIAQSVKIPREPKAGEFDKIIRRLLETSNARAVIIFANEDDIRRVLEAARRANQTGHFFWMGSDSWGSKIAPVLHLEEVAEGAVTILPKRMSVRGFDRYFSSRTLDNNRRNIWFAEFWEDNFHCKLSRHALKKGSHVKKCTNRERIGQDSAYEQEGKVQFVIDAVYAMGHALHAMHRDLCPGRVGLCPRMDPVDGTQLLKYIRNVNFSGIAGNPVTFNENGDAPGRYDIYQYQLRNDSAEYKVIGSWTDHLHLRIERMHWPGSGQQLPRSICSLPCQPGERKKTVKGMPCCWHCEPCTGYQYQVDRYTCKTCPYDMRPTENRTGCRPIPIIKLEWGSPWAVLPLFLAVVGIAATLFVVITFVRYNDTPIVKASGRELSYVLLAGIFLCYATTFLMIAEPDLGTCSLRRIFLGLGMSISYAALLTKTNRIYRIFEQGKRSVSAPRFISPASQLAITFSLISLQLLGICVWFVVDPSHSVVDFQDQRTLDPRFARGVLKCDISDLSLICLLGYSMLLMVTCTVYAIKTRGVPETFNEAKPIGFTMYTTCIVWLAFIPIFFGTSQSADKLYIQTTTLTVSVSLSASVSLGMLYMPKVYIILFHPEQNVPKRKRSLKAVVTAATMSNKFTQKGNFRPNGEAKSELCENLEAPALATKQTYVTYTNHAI
Experiment: Ca2+ mobilization in vitro assay on recombinant human mGlu4 expressed in HEK293 cells (mGlu4 PAM)
Assay type: cell-based
Conditions: HEK293; maximal response in % of the maximal stimulatory effect obtained with saturating concentrations of L-AP4; read-out: Eff. (%)
Would you kindly list Emax for each of these compounds?
One number for each entry, in %.

[
  {
    "COMPOUND": "CC(C)Oc1ccc([C@]2(C)CC(=O)N(c3c(F)cc(C#Cc4ccccc4)cc3F)C(=O)N2C)cn1",
    "ASSAY VALUE": 95
  },
  {
    "COMPOUND": "CN1C(=O)N(c2c(F)cc(C#Cc3ccccc3)cc2F)C(=O)CC1(C)C(C)(C)C (racemic)",
    "ASSAY VALUE": 109
  },
  {
    "COMPOUND": "CN1C(=O)N(c2c(F)cc(C#Cc3ccccc3)cc2F)C(=O)CC12CCCOC2 (racemic)",
    "ASSAY VALUE": 129
  }
]

I'm hoping you can list Emax for every compound here, please.
1. CN1C(=O)N(c2c(F)cc(C#Cc3cccnc3)cc2F)C(=O)CC1(C)C1CCCCC1 (racemic)
2. CN1C(=O)N(c2ncc(C#Cc3ccccc3)cc2F)C(=O)C[C@@]1(C)c1cccnc1
3. COCC1(C)CC(=O)N(c2c(F)cc(C#Cc3ccccc3)cc2F)C(=O)N1C (racemic)
4. CC(C)N1CCN2C(=O)N(c3c(F)cc(C#Cc4ccccc4)cc3F)C(=O)CC2(C)C1=O (racemic)

Solution:
[117, 164, 103, 128]

Values were extracted from patent US9725416B2.
